MEASUREMENT PROTOCOL: folding stability dG unfold from trypsin proteolysis; higher = more stable
ENDPOINT NAME: folding stability dG unfold
Please give the number followed by its unit.

- QUERY SEQUENCE: "SAMKITDVTVERNPDNGWYEVMVTFEFDNGPVTVKIWMPRDGNMPIDVYDMGNGEPKGEIWIPADQIKFSAG [r14_608_TrROS]"
  ENDPOINT NAME: "folding stability dG unfold"
  ASSAY RESULT: "3.74 kJ/mol"
- QUERY SEQUENCE: "SAGGSAKGLKVTFSHPDVEILSVKSYPGLGLAEVEFRYGDKLYRALVRFEPDDGGIAEATVEPVPGSAGGSA [r15_297_TrMRF]"
  ENDPOINT NAME: "folding stability dG unfold"
  ASSAY RESULT: "6.63 kJ/mol"
- QUERY SEQUENCE: "SAGGSAGKPVLVRVKLRLEFPGTGELAEAEVVVEADSIEDALDRVLKELTLPDFKAEVLDVKAIPLSAGGSA [r2_320_TrMRF]"
  ENDPOINT NAME: "folding stability dG unfold"
  ASSAY RESULT: "8.81 kJ/mol"
- QUERY SEQUENCE: "SAGGMKITITLTVKNEELLEELKKLAEELGLKVKIEVKYDEETNELTVTVEIELPPPPEEPSEEELKSAGGS [r16_262_TrROS_Hall]"
  ENDPOINT NAME: "folding stability dG unfold"
  ASSAY RESULT: "10.4 kJ/mol"
- QUERY SEQUENCE: "SAGGSAGGSAGGSLAFEGSFRFRKLKLTFKRKLTRTRPDGEPEEFEEELELEVEVVLPVSAGGSAGGSAGGS [r4_418_TrMRF]"
  ENDPOINT NAME: "folding stability dG unfold"
  ASSAY RESULT: "15.8 kJ/mol"

Query: folding stability dG unfold; subject: SAGGSAGGSAGGKKTYVKKIVTEKKKVKLFFYDKKTGELLEEKEVEVIKTKIYVTKPDEFSAGGSAGGSAGG [r7_573_TrMRF]
2 kJ/mol

Please do the same for SAGGGLEEFARRLAEELARLLGGPNVPFELEGVVVFGFRLRPDGTPEPTTSRPVVVRVRFETPGGDPSAGGS [r16_156_TrMRF] as well.
11.3 kJ/mol

----------
MEASUREMENT PROTOCOL: folding stability dG unfold from chymotrypsin proteolysis; higher = more stable
ENDPOINT NAME: folding stability dG unfold (kcal/mol)
Give the value, in units of kcal/mol, as a plain number.

What value of folding stability dG unfold has been recorded for this entry: SAGGSAGGSAGGSMITIEVTTPTEKHTIEVPEDEVPEEELIERAKKLFPDVEKITILKESAGGSAGGSAGGS [r4_235_JUSTAS]
0.613

Entry SAGGSAGGPPPAKVVEVREVTLEDLENLDKLLVVFPDGKVYTSPEALRKWLEEGKPVLVAVFEGSAGGSAGG [r6_827_TrMRF] please
1.96

Follow-up item: SAGGSAGGSAGPPDQNFLIKIKWQENGKKREHTIPIPAENLDEVLDELSPWPGLEVEIIPSAGGSAGGSAGG [r17_50_TrROS]
-0.295

Now give it for SAGGSMSPALNKKLDVEEITADEEEAKKIAKESKKPVIVTLPDGTVLRFNTDGSVTEYPLPPPELLSAGGSA [r2_34_JUSTAS] too.
1.12

Now consider SAGYKATIIPPDGSEVTIDVKAEDLGPLVEELEKAGLKVESLEVSPDGTAVIPVTSPDGKPYLIVIDLKSAG [r5_645_TrMRF] and answer again.
0.305

Can you check GKAEVVRVEYDPETGALRVVLRREGADVVLEVDPETGVARVYFPADPRVLEFEFDTLEEAVDAAVALLEAGS [r1_177_TrMRF] next?
4.66

Again, but for SAGGSAGGSSPSTSSERRIELPGGEEAEVFFYPSSGKILVRFPDREVEYYVEDDGKIVKKDPLSAGGSAGGS [r12_47_JUSTAS]
0.0525

Thanks! And SAGGSAGGSDEEVEVTLYPVDPSAPDDTVYYAEVTFPNGLVARYRFRKKDGKVEGELVEVKPASAGGSAGGS [r12_1049_TrMRF] ?
1.95

What do you get for SAGGSAGGSKPEPVKPVKLKVKLPGGEYEVEAVELPKGVVLVRNPADNSLAVITPDRLVVLPLSAGGSAGGS [r12_737_TrMRF] ?
0.0823

Then this sequence: ATVTITDVSFDPETNTITVTVTVTGPDGTTTTFTATFRIEPAPPPAPPAPVYVVDDDGKVYNLDTGEWKDVS [r1_270_TrROS_Hall]
2.3

Same thing, different sequence: SAGGDSLPENVIKIELEFEIETEDGSKIELKLEIYISPDNKIYVKAEATIILPDKPIKIEIDFEFDVSAGGS [r16_563_TrMRF]
3.35

Next sequence up: SATKTINFDEFNDMMNQGDPPMLRHIIKEAREKDPDKEITIRMPKNPMFRDYIKEAFKEEGYPVKITPHSAG [r14_236_TrROS]
-0.494

What about this sequence? SAAVPSDLTLTTLETKKEKFDDNEYTVVKSVLLRPGAPGATVTEYTTVYKGDKVVETKPSERTVSPALLSAG [r14_651_JUSTAS]
0.209

Consider next the sequence SIEVEKTPDGKFEIENDNGWKVEIEVFPGMIEIKIKPVKVYVPDGKWFETPEEAEKMQEKNGVPITEDDLSA [r9_660_TrROS] in the same way.
1.08

How about this sequence: SAGGSAGGSGEELRNLLANVKKVTVFPNADGGLGVLIELEPEEPEERTIVLNYDQLAELLALGSAGGSAGGS [r12_466_TrMRF]
0.813

Follow-up entry: SAGGSAGGSERWVKIWFPPGGTLEEASKMIEEWAQQLGLPITKIDEIEWDPGNGRVEITIRLKSAGGSAGGS [r12_131_TrROS]
2.01

SAGGSAGGSAGPPNKPVYVRVRIQMPNGKKKTFWFKDVEQIEKNLKEEFGIRDIEIEPIKSAGGSAGGSAGG [r17_508_TrROS] , same question.
1.71

----------
Item-by-item account of folding stability dG unfold
MEASUREMENT PROTOCOL: folding stability dG unfold from trypsin proteolysis; higher = more stable
Respond numerically; units are kcal/mol and should not be typed.

Here are 4 sequences together with their reported answers.
- QUERY SEQUENCE: "SAGGSAGGTLKELIDNITRVDPENGKQRMRIPGGAEIEINPEEGQIKIRYYHPGKPQEITLPLPSAGGSAGG [r6_793_TrROS]"
  ASSAY RESULT: 0.46
- QUERY SEQUENCE: "SASLTLTITLPDGAKITSITVEEVDGELVLTEITVETTNENGEKTTVTRTIVLKLPPAPPAHPDDPALKSAG [r14_95_TrROS_Hall]"
  ASSAY RESULT: 2.13
- QUERY SEQUENCE: "SAGGGMVITTPQTTSTTFSPPTAPAVPAPFTQSSSFTIGNTKVTVTTTQAAGSGTTTVTLTTILPPLASAGG [r13_998_JUSTAS]"
  ASSAY RESULT: 1
- QUERY SEQUENCE: "SAGGDPGKPTSVTLTLTVPKDKKTVKLEVTFNPETGEAVITFPGSSKTVTLPFGSLPDVLDAAKKLLYSAGG [r13_439_TrMRF]"
  ASSAY RESULT: 2.31

Consider the sequence shown here: SAGGSAGGSAGGKVTVTPDGRLVIEKPKVTVEPVEVEEVEVELELKLSPEELEELLKKLSAGGSAGGSAGGS [r10_1096_TrROS_Hall] What is its recorded folding stability dG unfold?
0.51

// query: SAGGSAGGMEPLTRVTVELELPGGETRVVEGDDLEAVKERLKEELGLPDLVVKSVKTTPLPALESAGGSAGG [r6_406_JUSTAS]
0.6

Next sequence: SAGGITINEDGTITIEVNGKTYTIKLPPGAEITKIEVLEDGTIKITLRINGKTVTLELKVYKEGEEPSAGGS [r16_635_TrROS_Hall]
4.56

----------
MEASUREMENT PROTOCOL: folding stability dG unfold (combined trypsin and chymotrypsin); higher = more stable
ENDPOINT NAME: folding stability dG unfold (kcal/mol)
// return numeric value only (unit: kcal/mol, not printed)

Which measured folding stability dG unfold value corresponds to SAGGSAGGSAGGMPTYEVTLEPDPTGGDVYTVTVTFPDGSTVTRNATPAELKAEGLTVKVSAGGSAGGSAGG [r7_14_JUSTAS] ?
0.967

Now the same for SAGGSAGGMKIIKYDKKTKKVLIYYDEETKEWYVRNKNGKIYKFKSVEEALKKLPVKVEIVKVPSAGGSAGG [r6_752_TrROS_Hall]
1.67

----------
MEASUREMENT PROTOCOL: folding stability dG unfold (combined trypsin and chymotrypsin); higher = more stable
Measured folding stability dG unfold, listed per entry.
State just the number; it will be interpreted in kcal/mol.

- QUERY SEQUENCE: "SPPGWKVIPITLKFRAPIKSVEEAKSQVREIAREIANRHGFPIQVNVTVEYDPEDGWVKVEVPISIWVPKSA [r9_741_TrROS]"
  QUANTITY UNIT: "kcal/mol"
  folding stability dG unfold: 2.97
- QUERY SEQUENCE: "SAGGMTTVTTTFTMSSEELKKFLEEKFGREVTKEEIIELIPKEKKIDVSESPQPNGTVKYTITITIEKSAGG [r13_869_JUSTAS]"
  QUANTITY UNIT: "kcal/mol"
  folding stability dG unfold: 2.44
- QUERY SEQUENCE: "SAGMEKKTLTVTHPDGSEATVEVYKNPETGKYVTLVHYPETGKYEVFDDNGNLIATFGNGSAADAFKAISAG [r5_757_TrMRF]"
  QUANTITY UNIT: "kcal/mol"
  folding stability dG unfold: 1.44

Okay, next one:
Name the reported folding stability dG unfold value associated with the sequence SAGMNLKIEVSVTPQEFELVEKDEEGNLIKPVKQKATVVTTTTTLPDGTVTTTRSLFLDGELVATSTGSAGG [r19_44_JUSTAS]
0.972
